DC50 overview
Target Entity: CDK12 (Homo sapiens, UniProt Q9NYV4)
Sequence (Q9NYV4 whole entry): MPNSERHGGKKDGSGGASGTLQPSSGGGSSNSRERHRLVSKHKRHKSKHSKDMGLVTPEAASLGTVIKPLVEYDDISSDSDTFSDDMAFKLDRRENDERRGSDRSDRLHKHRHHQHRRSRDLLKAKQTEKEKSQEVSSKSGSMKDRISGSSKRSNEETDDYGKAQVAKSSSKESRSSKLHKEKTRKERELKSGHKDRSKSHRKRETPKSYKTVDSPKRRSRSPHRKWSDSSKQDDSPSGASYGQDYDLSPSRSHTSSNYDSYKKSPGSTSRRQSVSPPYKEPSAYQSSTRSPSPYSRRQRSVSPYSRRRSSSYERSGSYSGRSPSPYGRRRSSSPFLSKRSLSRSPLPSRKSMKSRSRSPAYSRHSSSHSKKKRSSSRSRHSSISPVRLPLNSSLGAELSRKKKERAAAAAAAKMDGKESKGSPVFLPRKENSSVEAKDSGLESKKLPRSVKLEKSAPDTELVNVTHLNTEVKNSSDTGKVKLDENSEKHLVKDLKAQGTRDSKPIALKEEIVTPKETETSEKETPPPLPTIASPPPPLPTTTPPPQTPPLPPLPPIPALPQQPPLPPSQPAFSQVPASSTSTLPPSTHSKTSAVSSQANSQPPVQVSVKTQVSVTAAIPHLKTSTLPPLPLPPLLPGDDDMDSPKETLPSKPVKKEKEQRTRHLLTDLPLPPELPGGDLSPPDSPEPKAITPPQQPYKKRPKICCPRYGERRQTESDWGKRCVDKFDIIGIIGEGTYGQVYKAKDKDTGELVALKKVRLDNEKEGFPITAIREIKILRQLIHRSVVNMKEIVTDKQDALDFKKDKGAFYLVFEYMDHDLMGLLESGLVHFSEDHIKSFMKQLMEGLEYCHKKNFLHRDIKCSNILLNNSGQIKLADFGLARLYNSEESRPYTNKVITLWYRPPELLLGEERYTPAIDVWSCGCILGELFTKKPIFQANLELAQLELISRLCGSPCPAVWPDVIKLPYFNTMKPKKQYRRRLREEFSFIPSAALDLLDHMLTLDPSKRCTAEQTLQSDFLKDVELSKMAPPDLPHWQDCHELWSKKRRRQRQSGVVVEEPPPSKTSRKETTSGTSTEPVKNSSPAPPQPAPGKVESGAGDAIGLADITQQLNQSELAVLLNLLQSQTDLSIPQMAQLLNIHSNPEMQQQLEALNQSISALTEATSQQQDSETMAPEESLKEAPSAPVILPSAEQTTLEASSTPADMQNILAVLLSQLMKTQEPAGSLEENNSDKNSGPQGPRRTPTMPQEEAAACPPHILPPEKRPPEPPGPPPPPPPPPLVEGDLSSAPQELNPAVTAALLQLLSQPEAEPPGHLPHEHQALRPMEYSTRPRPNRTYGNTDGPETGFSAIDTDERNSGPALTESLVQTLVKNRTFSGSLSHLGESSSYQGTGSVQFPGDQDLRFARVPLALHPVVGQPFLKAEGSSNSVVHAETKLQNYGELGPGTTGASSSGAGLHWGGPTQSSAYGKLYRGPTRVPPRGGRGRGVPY
Sequence (O75909 whole entry partner): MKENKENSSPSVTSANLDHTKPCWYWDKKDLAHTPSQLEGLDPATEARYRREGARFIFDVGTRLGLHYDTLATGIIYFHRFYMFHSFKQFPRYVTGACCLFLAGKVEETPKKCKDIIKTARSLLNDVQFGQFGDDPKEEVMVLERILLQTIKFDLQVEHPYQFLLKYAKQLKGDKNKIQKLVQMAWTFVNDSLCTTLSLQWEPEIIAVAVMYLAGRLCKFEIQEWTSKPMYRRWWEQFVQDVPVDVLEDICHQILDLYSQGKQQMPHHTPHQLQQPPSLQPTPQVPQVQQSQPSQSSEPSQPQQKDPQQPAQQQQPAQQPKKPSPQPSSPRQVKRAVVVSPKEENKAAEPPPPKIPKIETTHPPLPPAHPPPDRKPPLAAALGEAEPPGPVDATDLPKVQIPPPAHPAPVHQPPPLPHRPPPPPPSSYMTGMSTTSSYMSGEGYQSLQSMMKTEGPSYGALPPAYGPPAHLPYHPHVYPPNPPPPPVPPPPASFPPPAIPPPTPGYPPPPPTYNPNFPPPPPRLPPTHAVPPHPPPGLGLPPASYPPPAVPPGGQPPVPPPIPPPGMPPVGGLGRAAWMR
Assay Summary: Western blot degradation of CDK12 (Example 2)
Assay type: cell-based
Set-up: degradation of CDK12/13 protein in leukemia cells KASUMI-1, MV4-11, and Jurkat; endogenous in cells
Particulars: DC50 classes; cell line not given; read-out: CDK12 degradation Activity
Measured Attribute: DC50

Compound	Measured Attribute	Reported
Cc1ncsc1-c1ccc([C@H](C)NC(=O)[C@@H]2C[C@@H](O)CN2C(=O)[C@@H](NC(=O)CN2CCN(c3ccc(-c4ccc5c(c4)CCN(Cc4ccccc4)C(=O)N5[C@H]4CC[C@H](Nc5ccc(C#N)cn5)CC4)cn3)CC2)C(C)(C)C)cc1 [Formula 69]	DC50	500 to 1000 nM
Cc1ncsc1-c1ccc([C@H](C)NC(=O)[C@@H]2C[C@@H](O)CN2C(=O)[C@@H](NC(=O)C2CCN(C(=O)C3CCN(c4ccc(-c5ccc(N(C(=O)NCc6ccccc6)[C@H]6CC[C@H](Nc7ccc(C#N)cn7)CC6)cc5)cn4)CC3)CC2)C(C)(C)C)cc1 [Formula 21]	DC50	1000 to 3000 nM

----------
DC50 overview
Target Entity: CDK13 (Homo sapiens, UniProt Q14004)
Sequence (Q14004 whole entry): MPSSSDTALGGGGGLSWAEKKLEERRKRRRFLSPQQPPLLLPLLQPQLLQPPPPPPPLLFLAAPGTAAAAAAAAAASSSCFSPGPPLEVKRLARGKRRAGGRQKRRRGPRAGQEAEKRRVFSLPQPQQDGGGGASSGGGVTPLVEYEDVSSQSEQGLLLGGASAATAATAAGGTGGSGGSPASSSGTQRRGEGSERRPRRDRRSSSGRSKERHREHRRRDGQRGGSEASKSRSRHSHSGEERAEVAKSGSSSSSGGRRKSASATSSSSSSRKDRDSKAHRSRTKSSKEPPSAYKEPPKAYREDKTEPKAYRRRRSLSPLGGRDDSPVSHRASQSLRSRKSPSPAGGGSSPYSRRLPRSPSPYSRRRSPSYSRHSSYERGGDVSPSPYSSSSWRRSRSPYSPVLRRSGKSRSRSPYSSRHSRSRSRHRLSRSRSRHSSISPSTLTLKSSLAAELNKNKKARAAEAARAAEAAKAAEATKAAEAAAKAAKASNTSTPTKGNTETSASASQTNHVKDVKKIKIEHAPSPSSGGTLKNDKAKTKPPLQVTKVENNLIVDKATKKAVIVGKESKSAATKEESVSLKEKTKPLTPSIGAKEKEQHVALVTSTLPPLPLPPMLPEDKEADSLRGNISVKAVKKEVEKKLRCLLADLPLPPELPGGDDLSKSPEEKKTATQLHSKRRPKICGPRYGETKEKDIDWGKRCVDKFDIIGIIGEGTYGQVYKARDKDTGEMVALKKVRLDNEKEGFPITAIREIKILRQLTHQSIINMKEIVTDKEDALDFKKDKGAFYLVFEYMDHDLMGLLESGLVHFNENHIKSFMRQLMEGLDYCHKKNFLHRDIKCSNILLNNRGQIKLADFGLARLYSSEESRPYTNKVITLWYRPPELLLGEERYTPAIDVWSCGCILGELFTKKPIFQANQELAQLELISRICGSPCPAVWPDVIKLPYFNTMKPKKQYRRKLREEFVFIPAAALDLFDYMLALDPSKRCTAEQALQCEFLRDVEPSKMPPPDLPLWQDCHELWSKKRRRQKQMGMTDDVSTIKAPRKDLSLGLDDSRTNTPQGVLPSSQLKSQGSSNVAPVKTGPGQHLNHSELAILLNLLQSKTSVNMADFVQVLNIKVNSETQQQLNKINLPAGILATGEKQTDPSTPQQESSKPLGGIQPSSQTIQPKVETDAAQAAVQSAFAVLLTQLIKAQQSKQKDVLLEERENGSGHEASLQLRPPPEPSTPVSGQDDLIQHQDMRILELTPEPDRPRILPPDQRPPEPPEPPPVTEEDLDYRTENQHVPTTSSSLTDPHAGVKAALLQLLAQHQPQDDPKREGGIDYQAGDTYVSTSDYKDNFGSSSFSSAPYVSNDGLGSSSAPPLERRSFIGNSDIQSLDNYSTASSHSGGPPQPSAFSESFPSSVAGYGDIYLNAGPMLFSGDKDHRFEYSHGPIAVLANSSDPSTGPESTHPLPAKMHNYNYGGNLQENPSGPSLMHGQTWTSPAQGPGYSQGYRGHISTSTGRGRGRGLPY
Sequence (O75909 whole entry partner): as the sequence (O75909 whole entry partner) above
Assay Summary: Western blot degradation of CDK13 (Example 2)
Assay type: cell-based
Set-up: degradation of CDK12/13 protein in leukemia cells KASUMI-1, MV4-11, and Jurkat; endogenous in cells
Particulars: DC50 classes; cell line not given; read-out: CDK13 degradation Activity

Compound	DC50
Cc1ncsc1-c1ccc([C@H](C)NC(=O)[C@@H]2C[C@@H](O)CN2C(=O)[C@@H](NC(=O)COCCOCCOCCOc2ccc(-c3ccc(N(C(=O)NCc4ccccc4)[C@H]4CC[C@H](Nc5ccc(C#N)cn5)CC4)cc3)cn2)C(C)(C)C)cc1 [Formula 3]	3000 to 10000 nM
Cc1ncsc1-c1ccc([C@H](C)NC(=O)[C@@H]2C[C@@H](O)CN2C(=O)[C@@H](NC(=O)N2CCN(c3ccc(N(C(=O)NCc4ccccc4)[C@H]4CC[C@H](Nc5ncc6ccccc6n5)CC4)cc3)CC2)C(C)(C)C)cc1 [Formula 53]	1000 to 3000 nM
CCNC(=O)N(c1ccc(-c2ccc(N3CCN(CC(=O)N[C@H](C(=O)N4C[C@H](O)C[C@H]4C(=O)N[C@@H](C)c4ccc(-c5scnc5C)cc4)C(C)(C)C)CC3)nc2)cc1)[C@H]1CC[C@H](Nc2ccc(C#N)cn2)CC1 [Formula 44]	100 to 500 nM
Cc1ncsc1-c1ccc([C@H](C)NC(=O)[C@@H]2C[C@@H](O)CN2C(=O)[C@@H](NC(=O)CN2CCN(c3ccc(-c4ccc(N(C(=O)NCc5ccccc5)[C@H]5CC[C@H](Nc6ccc(C#N)cn6)CC5)cc4)cn3)CC2)C(C)(C)C)cc1 [Formula 74]	< 100 nM

----------
Target Entity: CDK12 (Homo sapiens)
Assay Summary: Western blot degradation of CDK12 (Example 2)
Assay type: cell-based
Set-up: degradation of CDK12/13 protein in leukemia cells KASUMI-1, MV4-11, and Jurkat; endogenous in cells
Particulars: DC50 classes; cell line not given; read-out: CDK12 degradation Activity
Protocol: Western blot was used to determine the degradation of CDK12/13 protein in leukemia cells KASUMI-1, MV4-11, and Jurkat. […] (2) Cell seeding: Cells were digested, and the cell suspension was transferred to a 1.5 mL Eppendorf tube. After centrifugation at 1,000 rpm for 5 min, the cells were resuspended in 2 mL of culture medium and counted. […] The exposure results were quantitatively analyzed using Image J software. […]
DC50 overview
Measured Attribute: DC50

Compound	Reported
Cc1ncsc1-c1ccc([C@H](C)NC(=O)[C@@H]2C[C@@H](O)CN2C(=O)[C@@H](NC(=O)COCCOCCOCCOCCOc2ccc(-c3ccc(N(C(=O)NCc4ccccc4)[C@H]4CC[C@H](Nc5ccc(C#N)cn5)CC4)cc3)cn2)C(C)(C)C)cc1	3 to 10 µM
Cc1ncsc1-c1ccc([C@H](C)NC(=O)[C@@H]2C[C@@H](O)CN2C(=O)[C@@H](NC(=O)C2CCN(c3ccc(-c4ccc(N(C(=O)NCc5ccccc5)[C@H]5CC[C@H](Nc6ccc(C#N)cn6)CC5)cc4)cn3)CC2)C(C)(C)C)cc1	1 to 3 µM
N#Cc1ccc(N[C@H]2CC[C@H](N(C(=O)NCc3ccccc3)c3ccc(-c4ccc(OCCOCCOCCOCCOCCNc5cccc6c5C(=O)N(C5CCC(=O)NC5=O)C6=O)nc4)cc3)CC2)nc1 (stereo partly shown)	1 to 3 µM
Cc1ncsc1-c1ccc([C@H](C)NC(=O)[C@@H]2C[C@@H](O)CN2C(=O)[C@@H](NC(=O)C2CC3(CC(Nc4ccc(-c5ccc(N(C(=O)NCc6ccccc6)[C@H]6CC[C@H](Nc7ccc(C#N)cn7)CC6)cc5)cn4)C3)C2)C(C)(C)C)cc1 (stereo partly shown)	3 to 10 µM
N#Cc1ccc(N[C@H]2CC[C@H](N(C(=O)NCc3ccccc3)c3ccc(-c4ccc(OCCNc5cccc6c5C(=O)N(C5CCC(=O)NC5=O)C6=O)nc4)cc3)CC2)nc1 (stereo partly shown)	1 to 3 µM
Cc1ncsc1-c1ccc([C@H](C)NC(=O)[C@@H]2C[C@@H](O)CN2C(=O)[C@@H](NC(=O)CN2CCN(c3ccc(N(C(=O)NCc4ccccc4)[C@H]4CC[C@H](Nc5ccc(C#N)cn5)CC4)cc3)CC2)C(C)(C)C)cc1	1 to 3 µM
Cc1ncsc1-c1ccc([C@H](C)NC(=O)[C@@H]2C[C@@H](O)CN2C(=O)[C@@H](NC(=O)CN2CCN(c3ncc(-c4ccc(N(C(=O)NCc5ccccc5)[C@H]5CC[C@H](Nc6ccc(C#N)cn6)CC5)cc4)cn3)CC2)C(C)(C)C)cc1 [Formula 82]	< 0.1 µM
Cc1ncsc1-c1ccc([C@H](C)NC(=O)[C@@H]2C[C@@H](O)CN2C(=O)[C@@H](NC(=O)COCCOCCOc2ccc(-c3ccc(N(C(=O)NCc4ccccc4)[C@H]4CC[C@H](Nc5ccc(C#N)cn5)CC4)cc3)cn2)C(C)(C)C)cc1	1 to 3 µM
N#Cc1ccc(N[C@H]2CC[C@H](N(C(=O)NCc3ccccc3)c3ccc(-c4ccc(=O)n(CCOCCOCCOCCOCCOCCNc5cccc6c5C(=O)N(C5CCC(=O)NC5=O)C6=O)c4)cc3)CC2)nc1 (stereo partly shown)	3 to 10 µM
Cc1ncsc1-c1ccc([C@H](C)NC(=O)[C@@H]2C[C@@H](O)CN2C(=O)[C@@H](NC(=O)CC#CC2CCN(c3ccc(N(C(=O)NCc4ccccc4)[C@H]4CC[C@H](Nc5ccc(C#N)cn5)CC4)cc3)CC2)C(C)(C)C)cc1	3 to 10 µM
Cc1ncsc1-c1ccc([C@H](C)NC(=O)[C@@H]2C[C@@H](O)CN2C(=O)[C@@H](NC(=O)COCCN2CCN(c3ccc(N(C(=O)NCc4ccccc4)[C@H]4CC[C@H](Nc5ccc(C#N)cn5)CC4)cc3)CC2)C(C)(C)C)cc1	1 to 3 µM
Cc1ncsc1-c1ccc([C@H](C)NC(=O)[C@@H]2C[C@@H](O)CN2C(=O)[C@@H](NC(=O)COCCOCCOCCOCCn2cc(-c3ccc(N(C(=O)NCc4ccccc4)[C@H]4CC[C@H](Nc5ccc(C#N)cn5)CC4)cc3)ccc2=O)C(C)(C)C)cc1	1 to 3 µM
Cc1ncsc1-c1ccc([C@H](C)NC(=O)[C@@H]2C[C@@H](O)CN2C(=O)[C@@H](NC(=O)COCCOCCOCCOc2ccc(-c3ccc(N(C(=O)NCc4ccccc4)[C@H]4CC[C@H](Nc5ccc(C#N)cn5)CC4)cc3)cn2)C(C)(C)C)cc1	3 to 10 µM
Cc1ncsc1-c1ccc([C@H](C)NC(=O)[C@@H]2C[C@@H](O)CN2C(=O)[C@@H](NC(=O)CN2CCN(c3ccc(-c4ccc(N(C(=O)NCc5ccccc5)[C@H]5CC[C@H](Nc6ccc(C#N)cn6)CC5)cc4)cn3)CC2)C(C)(C)C)cc1 [Formula 18]	< 0.1 µM
Cc1ncsc1-c1ccc([C@H](C)NC(=O)[C@@H]2C[C@@H](O)CN2C(=O)[C@@H](NC(=O)CN2CCN(c3ncc(-c4ccc(N(C(=O)NCc5ccccc5)[C@H]5CC[C@H](Nc6ccc(C#N)cn6)CC5)cc4)cn3)CC2)C(C)(C)C)cc1 [Formula 45]	< 0.1 µM
Cc1ncsc1-c1ccc([C@H](C)NC(=O)[C@@H]2C[C@@H](O)CN2C(=O)[C@@H](NC(=O)CC#CC2CN(c3ccc(-c4ccc(N(C(=O)NCc5ccccc5)[C@H]5CC[C@H](Nc6ccc(C#N)cn6)CC5)cc4)cn3)C2)C(C)(C)C)cc1	3 to 10 µM

All figures here come from patent US20260327204A1.
